# tested.on: human mGluR2 receptor (Homo sapiens)
# Construct: membranes
# Sequence (Q14416 19-872): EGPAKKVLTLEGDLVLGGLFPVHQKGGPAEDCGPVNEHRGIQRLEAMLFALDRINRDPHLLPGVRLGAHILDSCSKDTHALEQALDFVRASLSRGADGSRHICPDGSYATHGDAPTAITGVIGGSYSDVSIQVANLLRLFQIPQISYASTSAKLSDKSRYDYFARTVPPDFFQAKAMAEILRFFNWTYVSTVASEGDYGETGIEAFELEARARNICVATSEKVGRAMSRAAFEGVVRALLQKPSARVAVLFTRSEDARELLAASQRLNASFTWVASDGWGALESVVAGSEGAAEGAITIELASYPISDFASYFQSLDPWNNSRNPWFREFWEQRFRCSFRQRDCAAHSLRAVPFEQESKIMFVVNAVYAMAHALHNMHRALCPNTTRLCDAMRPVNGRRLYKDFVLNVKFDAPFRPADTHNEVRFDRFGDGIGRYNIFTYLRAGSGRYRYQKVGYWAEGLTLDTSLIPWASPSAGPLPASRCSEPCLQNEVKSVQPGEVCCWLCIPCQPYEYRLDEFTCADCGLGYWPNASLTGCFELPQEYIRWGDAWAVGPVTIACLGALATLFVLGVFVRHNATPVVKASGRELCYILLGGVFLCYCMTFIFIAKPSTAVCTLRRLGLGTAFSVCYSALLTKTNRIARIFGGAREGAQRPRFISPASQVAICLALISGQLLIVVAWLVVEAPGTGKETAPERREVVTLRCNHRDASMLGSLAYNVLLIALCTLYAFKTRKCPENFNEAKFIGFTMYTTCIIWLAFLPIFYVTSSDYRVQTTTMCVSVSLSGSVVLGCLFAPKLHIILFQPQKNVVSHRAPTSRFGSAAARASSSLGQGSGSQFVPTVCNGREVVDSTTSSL
# measurement.notes: [35S]-GTPγS binding assay of mGluR2 receptor activation (allosteric activator activity)
# stated.conditions: membranes from CHO cells stably expressing human mGluR2; 1 μM glutamate; read-out: GTPgS EC50
Examples of compounds with documented pEC50 follow.
Please express pEC50 as -log10 of the molar concentration.

[[record]]
compound = "O=C1c2c(Cl)cc(-c3noc(CN4CCNCC4)n3)cc2CN1Cc1ccc(Cl)cc1 [Example 2]"
endpoint_name = "pEC50"
assay_result = 6.37

[[record]]
compound = "Cc1cc(-c2noc(C(C)N3CCNCC3)n2)cc2c1C(=O)N(Cc1ccc(OC(F)(F)F)cc1)C2 (stereo not drawn) [Example 12]"
endpoint_name = "pEC50"
assay_result = 6.51


Turning to the following compound.
[ask] Which value of pEC50 has been reported for Cc1cc(-c2noc(CN3CCNC[C@@H]3C)n2)cc2c1C(=O)N(Cc1ccc(Cl)cc1)C2 [Example 9] in the records?
[reply] 6.49

====

# tested.on: human mGluR2 receptor (Homo sapiens)
# Construct: membranes
# measurement.notes: [35S]-GTPγS binding assay of mGluR2 receptor activation (allosteric activator activity)
# stated.conditions: membranes from CHO cells stably expressing human mGluR2; 1 μM glutamate; read-out: GTPgS EC50
Examples of compounds with documented EC50 follow.
A number alone suffices; assume nM.

[[record]]
compound = "Cc1cc(-c2noc(CN3CCNCC3)n2)cc2c1C(=O)N(Cc1ccc(Cl)cc1)C2 [Example 4]"
readout_unit = "nM"
assay_result = 317

[[record]]
compound = "CC1(C)CN(Cc2nc(-c3cc(Cl)c4c(c3)CN(Cc3ccc(OC(F)(F)F)cc3)C4=O)no2)CCN1 [Example 11]"
readout_unit = "nM"
assay_result = 147

[[record]]
compound = "Cc1cc(-c2noc(CN3CCNCC3)n2)cc2c1C(=O)N([C@@H](C)c1ccc(Cl)cc1)C2 [Example 6]"
readout_unit = "nM"
assay_result = 47.8

[[record]]
compound = "Cc1cc(-c2noc(C(C)N3CCNCC3)n2)cc2c1C(=O)N(Cc1ccc(Cl)cc1)C2 (stereo not shown) [Example 13]"
readout_unit = "nM"
assay_result = 283

[[record]]
compound = "Cc1cc(-c2noc(CN3CCNC(C)C3)n2)cc2c1C(=O)N(Cc1ccc(Cl)cc1)C2 (stereo not shown) [Example 10]"
readout_unit = "nM"
assay_result = 121

[[record]]
compound = "Cc1cc(-c2noc(CN3CCNCC3)n2)cc2c1C(=O)N(Cc1ccc(OC(F)(F)F)cc1)C2 [Example 3]"
readout_unit = "nM"
assay_result = 147


Turning to the following compound.
[ask] Which value of EC50 has been reported for Cc1cc(-c2noc(CN3C[C@@H]4C[C@H]3CN4)n2)cc2c1C(=O)N(Cc1ccc(OC(F)(F)F)cc1)C2 [Example 5] in the records?
[reply] 75

====

# measurement.notes: Aqueous solubility in pH 7.4 phosphate buffer
# Format: physicochemical
# stated.conditions: thermodynamic from solid, equilibration 24 h at 25° C., read-out: Aq. solubility
endpoint.name: solubility at 24 h

[ask] Which value of solubility at 24 h has been reported for Cc1cc(-c2noc(C(C)N3CCNCC3)n2)cc2c1C(=O)N(Cc1ccc(Cl)cc1)C2 (stereo not shown) [Example 13] in the records?
[reply] 240 µM

[ask] Which value of solubility at 24 h has been reported for Cc1cc(-c2noc(C(C)N3CCNCC3)n2)cc2c1C(=O)N([C@@H](C)c1ccc(Cl)cc1)C2 (stereo partly shown) [Example 14] in the records?
[reply] 271 µM

[ask] Which value of solubility at 24 h has been reported for O=C1c2c(Cl)cc(-c3noc(CN4CCNCC4)n3)cc2CN1Cc1ccc(OC(F)(F)F)cc1 [Example 1] in the records?
[reply] 139 µM

[ask] Which value of solubility at 24 h has been reported for Cc1cc(-c2noc(CN3CCNCC3)n2)cc2c1C(=O)N([C@@H](C)c1ccc(Cl)cc1)C2 [Example 6] in the records?
[reply] 96 µM

[ask] Which value of solubility at 24 h has been reported for O=C1c2c(Cl)cc(-c3noc(CN4CCNCC4)n3)cc2CN1Cc1ccc(Cl)cc1 [Example 2] in the records?
[reply] 176 µM

[ask] Which value of solubility at 24 h has been reported for Cc1cc(-c2noc(CN3CCNCC3)n2)cc2c1C(=O)N(Cc1ccc(OC(F)(F)F)cc1)C2 [Example 3] in the records?
[reply] 111 µM

[ask] Which value of solubility at 24 h has been reported for Cc1cc(-c2noc(CN3CCNCC3)n2)cc2c1C(=O)N(Cc1ccc(Cl)cc1)C2 [Example 4] in the records?
[reply] 166 µM

[ask] Which value of solubility at 24 h has been reported for Cc1cc(-c2noc(C(C)N3CCNCC3)n2)cc2c1C(=O)N(Cc1ccc(OC(F)(F)F)cc1)C2 (stereo not shown) [Example 12] in the records?
[reply] 182 µM

[ask] Which value of solubility at 24 h has been reported for Cc1cc(-c2noc(CN3CCNC(C)C3)n2)cc2c1C(=O)N(Cc1ccc(Cl)cc1)C2 (stereo not shown) [Example 10] in the records?
[reply] 148 µM

[ask] Which value of solubility at 24 h has been reported for Cc1cc(-c2noc(CN3CCNC[C@H]3C)n2)cc2c1C(=O)N(Cc1ccc(Cl)cc1)C2 [Example 8] in the records?
[reply] 228 µM
